Listing: self-splicing fitness (ln) of selected sequences
experiment: self-splicing fitness, log relative to wild type (ln ratio); higher = more splicing; Tetrahymena group I intron in knt gene, E. coli kanamycin selection, DiMSum; sequences stand for … in CUCUCU…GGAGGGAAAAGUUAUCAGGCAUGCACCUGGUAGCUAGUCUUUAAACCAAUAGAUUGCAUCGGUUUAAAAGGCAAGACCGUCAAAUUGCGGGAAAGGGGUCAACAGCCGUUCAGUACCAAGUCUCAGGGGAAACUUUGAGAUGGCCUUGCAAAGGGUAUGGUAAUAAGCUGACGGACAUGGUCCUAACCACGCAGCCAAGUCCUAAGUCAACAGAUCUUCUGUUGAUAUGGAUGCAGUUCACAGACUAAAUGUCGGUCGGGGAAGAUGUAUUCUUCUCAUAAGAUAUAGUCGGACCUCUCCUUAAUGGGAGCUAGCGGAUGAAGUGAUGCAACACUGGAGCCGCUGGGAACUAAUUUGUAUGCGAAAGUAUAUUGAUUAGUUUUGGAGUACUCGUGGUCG; settings: 37 °C;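 further: selection with 25 µg/mL kanamycin versus none on LB agar overnight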
Write the value as a bare number.

# example entries with known answers
AGGCAGCAAUAUUACGUAUA = -1.56
AUCCAGCAAUAUUACGGCCA = -0.298
GAUGAGCAAUAUUACGUAAC = -1.9
AAAAAGCAAUAUUACGCGCA = 0.127
CAGAAGCAAUAUUACGACAG = -0.248

For UCAAAGCAAUAUUACGUUUG the sequence record lists self-splicing fitness (ln) as -1.82

For ACACAGCAAUAUUACGUCUC the sequence record lists self-splicing fitness (ln) as -1.25
